Just for reference, patent US20230049752A1 is where these values come from.

- TGT: human Claudin-6 (CLDN6) (human) (UniProt P56747)
- MEASUREMENT_PROTOCOL: FACS, limiting dilution, OV90 cells
READOUT_LABEL: FACS signal at 0.32 nM
The response must contain the number and no unit.

Before answering, review these 3 worked examples.
[
  {
    "BINDER": "AB1-11 (antibody, V domains shown, humanized; also called humanized AB1-11; HU-11) VH: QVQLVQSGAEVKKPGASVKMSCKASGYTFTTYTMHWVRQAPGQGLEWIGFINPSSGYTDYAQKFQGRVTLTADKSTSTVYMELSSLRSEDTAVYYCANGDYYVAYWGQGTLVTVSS VL: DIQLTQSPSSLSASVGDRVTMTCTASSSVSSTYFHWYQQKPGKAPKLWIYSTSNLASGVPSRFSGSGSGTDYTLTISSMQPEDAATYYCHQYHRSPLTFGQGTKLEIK",
    "FACS signal at 0.32 nM": 452
  },
  {
    "BINDER": "AB S11 (antibody, V domains shown) VH: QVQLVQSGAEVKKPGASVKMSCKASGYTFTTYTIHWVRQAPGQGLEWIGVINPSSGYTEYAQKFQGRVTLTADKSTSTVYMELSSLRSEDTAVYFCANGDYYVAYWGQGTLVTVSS VL: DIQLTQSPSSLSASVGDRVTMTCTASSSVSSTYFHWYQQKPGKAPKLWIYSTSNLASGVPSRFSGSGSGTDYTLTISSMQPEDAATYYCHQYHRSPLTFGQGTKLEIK",
    "FACS signal at 0.32 nM": 1460
  },
  {
    "BINDER": "AB S6 (antibody, V domains shown) VH: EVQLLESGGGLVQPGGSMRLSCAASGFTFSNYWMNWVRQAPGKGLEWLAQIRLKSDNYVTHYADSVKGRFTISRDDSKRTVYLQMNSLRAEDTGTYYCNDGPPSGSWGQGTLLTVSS VL: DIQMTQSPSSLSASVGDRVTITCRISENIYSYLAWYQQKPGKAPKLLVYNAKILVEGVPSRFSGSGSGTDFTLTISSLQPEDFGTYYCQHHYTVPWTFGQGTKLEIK",
    "FACS signal at 0.32 nM": 467
  }
]

Query :: Kindly indicate its recorded FACS signal at 0.32 nM. Item: AB S4 (antibody, V domains shown) VH: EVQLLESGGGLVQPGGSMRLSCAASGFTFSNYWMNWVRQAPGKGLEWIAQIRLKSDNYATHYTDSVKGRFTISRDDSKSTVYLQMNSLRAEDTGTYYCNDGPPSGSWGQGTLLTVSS VL: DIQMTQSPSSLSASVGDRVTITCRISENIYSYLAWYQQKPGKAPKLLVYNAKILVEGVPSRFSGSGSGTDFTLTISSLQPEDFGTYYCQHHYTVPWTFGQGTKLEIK
Result :: 432

Query :: Kindly indicate its recorded FACS signal at 0.32 nM. Item: AB S1 (antibody, V domains shown) VH: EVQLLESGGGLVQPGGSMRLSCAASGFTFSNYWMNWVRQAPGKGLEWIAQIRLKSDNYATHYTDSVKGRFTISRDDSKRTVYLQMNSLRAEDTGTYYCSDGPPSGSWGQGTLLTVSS VL: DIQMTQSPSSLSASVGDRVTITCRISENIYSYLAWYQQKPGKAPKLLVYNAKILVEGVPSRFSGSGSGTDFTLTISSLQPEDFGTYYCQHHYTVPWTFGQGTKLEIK
Result :: 475
